Data provenance is patent US11897904B2.

- Test system: ABUTH
- method_description: Post-emergence herbicidal action
- Type: in vivo, Abutilon theophrasti
- measurement_setup: post-emergence, 80 g/ha, rated visually after about 3 weeks vs untreated controls

# molecule, herbicidal activity ABUTH
measured = [
    ("Cn1nnnc1NC(=O)c1ccc(C(F)(F)F)c2c1OCS2(=O)=O [Example 2-83]", "90%"),
    ("CSc1ccc(C(=O)Nc2nnnn2C)c2c1OC(F)(F)O2 [Example 2-13]", "80%"),
    ("CCn1nnnc1NC(=O)c1ccc(C(F)(F)F)c2c1OCS2 [Example 3-52]", "80%"),
    ("Cn1nnnc1NC(=O)c1ccc(C(F)F)c2c1OCS2(=O)=O [Example 2-84]", "90%"),
    ("CC1Oc2c(C(=O)Nc3nnnn3C)ccc(C(F)(F)F)c2S1 (stereo not shown) [Example 2-94]", "90%"),
    ("CCn1nnnc1NC(=O)c1ccc(C(F)(F)F)c2c1OC[S+]2[O-] (stereo not shown) [Example 3-67]", "80%"),
    ("CCn1nnnc1NC(=O)c1ccc(C(F)F)c2c1OCS2 [Example 3-53]", "90%"),
    ("CC1Oc2c(C(=O)Nc3nnnn3C)ccc(C(F)(F)F)c2S1(=O)=O (stereo not shown) [Example 2-106]", "90%"),
    ("Cn1nnnc1NC(=O)c1ccc(C(F)F)c2c1OCS2 [Example 2-54]", "80%"),
    ("Cn1nnnc1NC(=O)c1ccc(C(F)F)c2c1OC[S+]2[O-] (stereo not shown) [Example 2-69]", "90%"),
]

---

Overview of reported herbicidal activity ECHCG across a group of compounds:
- Test system: ECHCG
- method_description: Post-emergence herbicidal action
- Assay type: in vivo, Echinochloa crus-galli
- measurement_setup: 80 g/ha, rated visually after about 3 weeks vs untreated controls

# compound, herbicidal activity ECHCG [%]
data = [
    ("CCn1nnnc1NC(=O)c1ccc(C(F)(F)F)c2c1OC[S+]2[O-] (centres unmarked)", 100),
    ("Cn1nnnc1NC(=O)c1ccc(C(F)F)c2c1OCS2", 100),
    ("Cn1nnnc1NC(=O)c1ccc(C(F)(F)F)c2c1OC[S+]2[O-] (centres unmarked)", 100),
    ("Cn1nnnc1NC(=O)c1ccc(C(F)(F)F)c2c1OCS2(=O)=O", 90),
    ("CC1Oc2c(C(=O)Nc3nnnn3C)ccc(C(F)(F)F)c2S1(=O)=O (centres unmarked)", 100),
    ("CC1Oc2c(C(=O)Nc3nnnn3C)ccc(C(F)(F)F)c2S1 (centres unmarked)", 80),
    ("Cn1nnnc1NC(=O)c1ccc(C(F)F)c2c1OCS2(=O)=O", 90),
    ("CCn1nnnc1NC(=O)c1ccc(C(F)(F)F)c2c1OCS2", 100),
    ("CCn1nnnc1NC(=O)c1ccc(C(F)(F)F)c2c1OCS2(=O)=O", 80),
    ("CCn1nnnc1NC(=O)c1ccc(C(F)F)c2c1OCS2", 80),
    ("Cn1nnnc1NC(=O)c1ccc(C(F)F)c2c1OC[S+]2[O-] (centres unmarked)", 100),
]

---

- System: AMARE
- method_description: Post-emergence herbicidal action
- Type: in vivo, Amaranthus retroflexus
- measurement_setup: 80 g/ha, rated visually after about 3 weeks vs untreated controls

# compound, target_under_test, herbicidal activity AMARE, %
records = [
    ("Cn1nnnc1NC(=O)c1ccc(C(F)(F)F)c2c1OC[S+]2[O-] (centres unmarked)", "AMARE", 100),
    ("CC1Oc2c(C(=O)Nc3nnnn3C)ccc(C(F)(F)F)c2S1(=O)=O (centres unmarked)", "AMARE", 100),
    ("CC1Oc2c(C(=O)Nc3nnnn3C)ccc(C(F)(F)F)c2S1 (centres unmarked)", "AMARE", 90),
    ("Cn1nnnc1NC(=O)c1ccc(S(C)(=O)=O)c2c1OC(F)(F)O2", "AMARE", 80),
    ("Cn1nnnc1NC(=O)c1ccc(C(F)F)c2c1OC[S+]2[O-] (centres unmarked)", "AMARE", 90),
    ("CSc1ccc(C(=O)Nc2nnnn2C)c2c1OC(F)(F)O2", "AMARE", 80),
    ("CCn1nnnc1NC(=O)c1ccc(C(F)F)c2c1OCS2", "AMARE", 100),
    ("CCn1nnnc1NC(=O)c1ccc(C(F)(F)F)c2c1OCS2(=O)=O", "AMARE", 100),
    ("CCn1nnnc1NC(=O)c1ccc(C(F)(F)F)c2c1OCS2", "AMARE", 100),
    ("Cn1nnnc1NC(=O)c1ccc(C(F)(F)F)c2c1OCS2(=O)=O", "AMARE", 100),
    ("Cn1nnnc1NC(=O)c1ccc(C(F)F)c2c1OCS2", "AMARE", 90),
    ("CCn1nnnc1NC(=O)c1ccc(C(F)(F)F)c2c1OC[S+]2[O-] (centres unmarked)", "AMARE", 100),
    ("Cn1nnnc1NC(=O)c1ccc(C(F)F)c2c1OCS2(=O)=O", "AMARE", 100),
    ("Cc1ccc(C(=O)Nc2nnnn2C)c2c1S(=O)(=O)CO2", "AMARE", 90),
]
